target: glucose-6-phosphate dehydrogenase-6-phosphogluconolactonase (Plasmodium falciparum 3D7); assay: inhibition of P. falciparum G6PD activity – biochemical, kinetic NADPH detection, orthogonal assay, SAR follow-up (AID 588593); details: recombinant PfG6PD-6PGL
Active and inactive are the calls of the source. No rule for the calls is given here.
Would you mind answering with one of these outcomes? class 1 for active, class 0 for inactive

Example results:
O=C1COc2ccc(C(=O)NCCN3CCCC3)cc2N1    class 0
CCN1CCCC1CNC(=O)c1ccc2c(c1)N(Cc1cccc(F)c1)C(=O)c1ccccc1S2 (stereo not drawn)    class 0

Here is another molecule to look at.
Incoming: For `COc1cccc(C(=O)Nc2nnc(S(=O)(=O)N3CCCCCC3)s2)c1` , which call appears in the assay record?
Outgoing: class 1
